# Protocol Details: Stability assay in 25% TIDE 2X detergent without DTPA (residual Abz-AGLA-Nba protease activity)
# Type: physicochemical
# Measurement Parameters: 180 min at 50°C; variant residual AGLA activity divided by wild-type residual activity
Result Type: PI (relative stability), 25% TIDE 2X without DTPA

// known answers, use as guide
- Molecule: "S065P: single-substitution thermolysin variant (SEQ ID NO:3 numbering) (protein, listed as Geobacillus caldoproteolyticus) ITGTSTVGVGRGVLGDQKNINTTYSTYYYLQDNTRGNGIFTYDAKYRTTLPGSLWADADNQFFAPYDAPAVDAHYYAGVTYDYYKNVHNRLSYDGNNAAIRSSVHYSQGYNNAFWNGSQMVYGDGDGQTFIPLSGGIDVVAHELTHAVTDYTAGLIYQNESGAINEAISDIFGTLVEFYANKNPDWEIGEDVYTPGISGDSLRSMSDPAKYGDPDHYSKRYTGTQDNGGVHINSGIINKAAYLISQGGTHYGVSVVGIGRDKLGKIFYRALTQYLTPTSNFSQLRAAAVQSATDLYGSTSQEVASVKQAFDAVGVK"
  Endpoint Result: 1.18
- Molecule: "T049N: single-substitution thermolysin variant (SEQ ID NO:3 numbering) (protein, listed as Geobacillus caldoproteolyticus) ITGTSTVGVGRGVLGDQKNINTTYSTYYYLQDNTRGNGIFTYDAKYRTNLPGSLWADADNQFFASYDAPAVDAHYYAGVTYDYYKNVHNRLSYDGNNAAIRSSVHYSQGYNNAFWNGSQMVYGDGDGQTFIPLSGGIDVVAHELTHAVTDYTAGLIYQNESGAINEAISDIFGTLVEFYANKNPDWEIGEDVYTPGISGDSLRSMSDPAKYGDPDHYSKRYTGTQDNGGVHINSGIINKAAYLISQGGTHYGVSVVGIGRDKLGKIFYRALTQYLTPTSNFSQLRAAAVQSATDLYGSTSQEVASVKQAFDAVGVK"
  Endpoint Result: 1.07

input: // query PI (relative stability), 25% TIDE 2X without DTPA value for entry T049D: single-substitution thermolysin variant (SEQ ID NO:3 numbering) (protein, listed as Geobacillus caldoproteolyticus) ITGTSTVGVGRGVLGDQKNINTTYSTYYYLQDNTRGNGIFTYDAKYRTDLPGSLWADADNQFFASYDAPAVDAHYYAGVTYDYYKNVHNRLSYDGNNAAIRSSVHYSQGYNNAFWNGSQMVYGDGDGQTFIPLSGGIDVVAHELTHAVTDYTAGLIYQNESGAINEAISDIFGTLVEFYANKNPDWEIGEDVYTPGISGDSLRSMSDPAKYGDPDHYSKRYTGTQDNGGVHINSGIINKAAYLISQGGTHYGVSVVGIGRDKLGKIFYRALTQYLTPTSNFSQLRAAAVQSATDLYGSTSQEVASVKQAFDAVGVK
output: 1.28

input: Quick one: Q061M: single-substitution thermolysin variant (SEQ ID NO:3 numbering) (protein, listed as Geobacillus caldoproteolyticus) ITGTSTVGVGRGVLGDQKNINTTYSTYYYLQDNTRGNGIFTYDAKYRTTLPGSLWADADNMFFASYDAPAVDAHYYAGVTYDYYKNVHNRLSYDGNNAAIRSSVHYSQGYNNAFWNGSQMVYGDGDGQTFIPLSGGIDVVAHELTHAVTDYTAGLIYQNESGAINEAISDIFGTLVEFYANKNPDWEIGEDVYTPGISGDSLRSMSDPAKYGDPDHYSKRYTGTQDNGGVHINSGIINKAAYLISQGGTHYGVSVVGIGRDKLGKIFYRALTQYLTPTSNFSQLRAAAVQSATDLYGSTSQEVASVKQAFDAVGVK
output: 1.01

input: Quick one: Q128T: single-substitution thermolysin variant (SEQ ID NO:3 numbering) (protein, listed as Geobacillus caldoproteolyticus) ITGTSTVGVGRGVLGDQKNINTTYSTYYYLQDNTRGNGIFTYDAKYRTTLPGSLWADADNQFFASYDAPAVDAHYYAGVTYDYYKNVHNRLSYDGNNAAIRSSVHYSQGYNNAFWNGSQMVYGDGDGTTFIPLSGGIDVVAHELTHAVTDYTAGLIYQNESGAINEAISDIFGTLVEFYANKNPDWEIGEDVYTPGISGDSLRSMSDPAKYGDPDHYSKRYTGTQDNGGVHINSGIINKAAYLISQGGTHYGVSVVGIGRDKLGKIFYRALTQYLTPTSNFSQLRAAAVQSATDLYGSTSQEVASVKQAFDAVGVK
output: 1.15

input: Quick one: Q128V: single-substitution thermolysin variant (SEQ ID NO:3 numbering) (protein, listed as Geobacillus caldoproteolyticus) ITGTSTVGVGRGVLGDQKNINTTYSTYYYLQDNTRGNGIFTYDAKYRTTLPGSLWADADNQFFASYDAPAVDAHYYAGVTYDYYKNVHNRLSYDGNNAAIRSSVHYSQGYNNAFWNGSQMVYGDGDGVTFIPLSGGIDVVAHELTHAVTDYTAGLIYQNESGAINEAISDIFGTLVEFYANKNPDWEIGEDVYTPGISGDSLRSMSDPAKYGDPDHYSKRYTGTQDNGGVHINSGIINKAAYLISQGGTHYGVSVVGIGRDKLGKIFYRALTQYLTPTSNFSQLRAAAVQSATDLYGSTSQEVASVKQAFDAVGVK
output: 1.20

input: Quick one: A056E: single-substitution thermolysin variant (SEQ ID NO:3 numbering) (protein, listed as Geobacillus caldoproteolyticus) ITGTSTVGVGRGVLGDQKNINTTYSTYYYLQDNTRGNGIFTYDAKYRTTLPGSLWEDADNQFFASYDAPAVDAHYYAGVTYDYYKNVHNRLSYDGNNAAIRSSVHYSQGYNNAFWNGSQMVYGDGDGQTFIPLSGGIDVVAHELTHAVTDYTAGLIYQNESGAINEAISDIFGTLVEFYANKNPDWEIGEDVYTPGISGDSLRSMSDPAKYGDPDHYSKRYTGTQDNGGVHINSGIINKAAYLISQGGTHYGVSVVGIGRDKLGKIFYRALTQYLTPTSNFSQLRAAAVQSATDLYGSTSQEVASVKQAFDAVGVK
output: 1.07
